measured_target: B-cell lymphoma 6 protein (Homo sapiens)
endpoint: IC50 (nM)

Cn1c(=O)n(CCC(C)(C)O)c2cc(Nc3nc(N4CCC(Cn5cccn5)CC4)ncc3Cl)ccc21 [US12110286, Example 35zb] ... 324
